B1: Protein piccolo, residues 1058 to 1114; numbered along this chain, Q9Y6V0 (parent)
chain: TCPLCKTELNIGSKDPPNFNTCTECKNQVCNLCGFNPTPHLTEIQEWLCLNCQTQRA

- Variants of: B1
- TEST: abundance fitness (aPCA) (normalised: wild type 0, dead -1); higher = more abundant; growth selection in yeast, the domain comes from the species named
- DETAILS: Homo sapiens
Note: every record was labeled by where its abundance fitness sits among low value (below -0.2), medium value (-0.2 to below -0.02), high value (-0.02 or more)

TCPLCKTELNIGSKDPPNFNTCTECKNQVCNLCGFNPTPHLTEIQLWLCLNCQTQRA [E46L]
medium value

Query: Into which category would you place TCPLCKTELNIGSKDPPNFNTQTECKNQVCNLCGFNPTPHLTEIQEWLCLNCQTQRA [C22Q] ?
Reply: low value

Query: Which category fits this record: TCPLCKTELNIGSKDPPNFNTCTECKNQVCNLCGFMPTPHLTEIQEWLCLNCQTQRA [N36M]
Reply: high value

Query: Which band does TCPLCKTELNIGSKDPPNFNTCTECKNQVCNLCGFNPTPHLTEIQEWLCLPCQTQRA [N51P] fall in?
Reply: low value

Data provenance: the Human Domainome abundance scans (Beltran et al. 2025)
